# test-system: UniProt P42336
# Sequence (P42336 whole entry): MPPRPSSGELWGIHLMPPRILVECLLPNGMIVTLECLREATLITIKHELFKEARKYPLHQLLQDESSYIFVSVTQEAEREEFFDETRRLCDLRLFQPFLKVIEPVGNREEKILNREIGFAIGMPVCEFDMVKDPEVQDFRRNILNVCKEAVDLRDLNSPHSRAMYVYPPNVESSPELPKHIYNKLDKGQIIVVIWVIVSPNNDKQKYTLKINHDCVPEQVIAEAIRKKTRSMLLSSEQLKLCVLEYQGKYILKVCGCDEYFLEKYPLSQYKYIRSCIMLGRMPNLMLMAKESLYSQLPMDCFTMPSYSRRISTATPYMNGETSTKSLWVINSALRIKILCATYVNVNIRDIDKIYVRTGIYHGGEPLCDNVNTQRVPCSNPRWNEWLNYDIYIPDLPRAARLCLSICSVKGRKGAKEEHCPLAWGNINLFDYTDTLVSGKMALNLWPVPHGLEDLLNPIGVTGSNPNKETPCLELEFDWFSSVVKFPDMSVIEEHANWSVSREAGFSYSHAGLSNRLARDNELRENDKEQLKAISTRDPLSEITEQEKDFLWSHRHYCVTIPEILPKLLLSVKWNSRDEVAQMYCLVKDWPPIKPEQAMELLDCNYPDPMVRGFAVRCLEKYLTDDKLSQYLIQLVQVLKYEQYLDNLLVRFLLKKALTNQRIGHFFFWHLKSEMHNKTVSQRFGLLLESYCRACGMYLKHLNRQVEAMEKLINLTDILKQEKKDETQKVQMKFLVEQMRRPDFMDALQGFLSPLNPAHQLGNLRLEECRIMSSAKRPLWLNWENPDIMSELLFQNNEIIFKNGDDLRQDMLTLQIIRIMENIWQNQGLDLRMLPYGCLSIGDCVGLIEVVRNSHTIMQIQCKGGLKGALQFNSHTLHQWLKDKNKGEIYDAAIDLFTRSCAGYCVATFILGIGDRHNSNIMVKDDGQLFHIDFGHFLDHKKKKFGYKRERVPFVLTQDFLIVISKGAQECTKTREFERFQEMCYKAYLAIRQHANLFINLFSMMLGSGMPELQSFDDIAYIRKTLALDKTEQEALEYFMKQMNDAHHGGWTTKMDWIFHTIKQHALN
# Sequence (P27986 whole entry partner): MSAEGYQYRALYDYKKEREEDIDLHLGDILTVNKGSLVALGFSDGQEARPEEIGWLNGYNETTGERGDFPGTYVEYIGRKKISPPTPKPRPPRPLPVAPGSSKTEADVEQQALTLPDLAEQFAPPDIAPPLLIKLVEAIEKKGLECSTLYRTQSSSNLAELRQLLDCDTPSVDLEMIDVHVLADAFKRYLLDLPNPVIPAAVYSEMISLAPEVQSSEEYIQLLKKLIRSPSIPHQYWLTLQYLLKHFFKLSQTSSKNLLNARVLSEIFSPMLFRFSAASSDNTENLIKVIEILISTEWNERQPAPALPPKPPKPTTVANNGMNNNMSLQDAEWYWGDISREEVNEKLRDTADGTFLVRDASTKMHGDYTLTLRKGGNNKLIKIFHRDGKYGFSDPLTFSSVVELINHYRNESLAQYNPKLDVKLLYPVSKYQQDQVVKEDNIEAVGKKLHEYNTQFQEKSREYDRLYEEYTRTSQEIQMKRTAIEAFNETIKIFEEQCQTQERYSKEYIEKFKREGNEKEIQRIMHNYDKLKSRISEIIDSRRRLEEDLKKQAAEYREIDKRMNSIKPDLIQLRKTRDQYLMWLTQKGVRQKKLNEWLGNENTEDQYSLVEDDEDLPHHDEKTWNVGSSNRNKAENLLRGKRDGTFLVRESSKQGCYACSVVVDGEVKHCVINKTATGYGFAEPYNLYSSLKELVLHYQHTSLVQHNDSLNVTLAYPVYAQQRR
observed-property: IC50

# get_value(readout= IC50, system= UniProt P42336) for NC(=O)c1nc(-c2ccncc2)oc1Cc1ccc(Cl)cc1 > 1000 nM

Origin of measurements: patent US9062038B2
